compounds and their reported melting point

> print(dat)
                                   compound  recorded.measurement
1  CCCCCCCC(=O)Oc1ccc(-c2nc(-c3ccc(N(C)C)cc3)c(C)[nH]2)cc1OC         126 to 129 °C
2  COc1ccc(-c2ccc3cc(C4SC(=O)NC4=O)ccc3c2)cc1C12CC3CC(CC(C3)C1)C2 (centres undefined)         205 to 207 °C
3  NCc1ccc(C2CCN(c3nc4c(cc3F)c(=O)c(C(=O)O)cn4C3CC3)C2)cc1 (centres undefined)         268 to 272 °C
4  O=c1n(CCCC2CCCC2)ccn1-c1ccc([N+](=O)[O-])cc1         105 to 107 °C
5  O=C(Nc1cc(OCCCON=Cc2ccc(-c3ccccc3)cc2)ccc1C(=O)O)c1ccc(OC(F)(F)F)cc1                188 °C

Prompt: Look up and state reported melting point for CCNc1ccc(C2(C)C(=O)c3c(Cl)cc(Cl)cc3N(Cc3ccccc3)C2=O)cc1 (centres undefined)
Response: 148 to 149 °C

Prompt: Look up and state reported melting point for O=C(O)c1cc([N+](=O)[O-])ccc1NCCc1ccccc1
Response: 116 to 118 °C

Prompt: Look up and state reported melting point for Cc1cn(Cc2ccc3c(c2)-c2[nH]nc(-c4ccsc4)c2C3)cn1
Response: 122 to 125 °C

Prompt: Look up and state reported melting point for CC(C)(C)c1ccc(C(=O)Nc2cn3cc(-c4cn[nH]c4)ccc3n2)cn1
Response: 238 to 240 °C
